Biological target: human VSIG3-ECD (Homo sapiens, UniProt Q5DX21)
Construct: extracellular domain (IgV + IgC2), signal peptide (22 aa) removed, His-tagged; RED-NHS labelled for MST; dimer in crystal
Sequence (Q5DX21 23-241): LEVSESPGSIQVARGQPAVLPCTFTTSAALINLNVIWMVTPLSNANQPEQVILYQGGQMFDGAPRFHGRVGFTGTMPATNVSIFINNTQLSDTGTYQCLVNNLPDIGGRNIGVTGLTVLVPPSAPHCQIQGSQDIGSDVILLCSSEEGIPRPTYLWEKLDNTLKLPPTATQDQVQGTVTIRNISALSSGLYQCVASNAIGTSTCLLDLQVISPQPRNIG
Experiment: microscale thermophoresis
Details: room temperature, 30 min; RED-NHS labelled protein
pKd: −log10 of the molar value.
measure.name: pKd

> print(dat)
                         structure.notation  recorded.result
1  O=C(CCn1c(SCC(=O)NC2CCCC2)nc2ccccc2c1=O)NC1CCCCC1             4.94
